Biological target: Human Phosphorylase Uridine 1 (hUP1) (Homo sapiens)
Test: hUP1 enzymatic assay, inhibition at 1 μM (UV absorbance of uridine at 280 nm)
Assay type: biochemical
Conditions: 1 μM compound, 37° C.
Procedure: The enzymatic activity of the hUP1 is performed through the enzymatic essay using one spectrophotometer UV/visible where the absorbance reduction of uridine in 280 nm, for 1 min and at 37° C. was monitored. For determining which inhibitors would be selected for determining the inhibition constant (Ki), one cut point of 1 μM was stipulated, where only those compounds that would inhibit more than 60% of the initial activity of the enzyme would be selected for this type of analysis (Table 1). […]
reported_property: Inhibition with 1 μM (%)
Report only the number, with the unit % understood.

Below are worked cases with known answers.
INSERT INTO assay_data (compound, experimental_target, recorded_number) VALUES
  ('Cc1cc(O)[nH]c(=O)c1C#N [Compound c3]', 'Human Phosphorylase Uridine 1 (hUP1) (Homo sapiens)', 70),
  ('Cc1c(CN(C)C)c(O)[nH]c(=O)c1C#N [c1]', 'Human Phosphorylase Uridine 1 (hUP1) (Homo sapiens)', 81),
  ('Cc1c(CNC(CO)CO)c(O)[nH]c(=O)c1C#N [c6]', 'Human Phosphorylase Uridine 1 (hUP1) (Homo sapiens)', 82);

Exercise: Query for Human Phosphorylase Uridine 1 (hUP1) (Homo sapiens): what Inhibition with 1 μM (%) does the record show for Cc1c(CNCC(O)CO)c(O)[nH]c(=O)c1C#N (stereo not shown) [c4] ?
Solution: 78

Exercise: Query for Human Phosphorylase Uridine 1 (hUP1) (Homo sapiens): what Inhibition with 1 μM (%) does the record show for Cc1c(CNCCO)c(O)[nH]c(=O)c1C#N [c2] ?
Solution: 80

Exercise: Query for Human Phosphorylase Uridine 1 (hUP1) (Homo sapiens): what Inhibition with 1 μM (%) does the record show for N#Cc1ccc(O)[nH]c1=O [c12] ?
Solution: 67

Exercise: Query for Human Phosphorylase Uridine 1 (hUP1) (Homo sapiens): what Inhibition with 1 μM (%) does the record show for Cc1cc(O)[nH]c(=O)c1C#N [c13] ?
Solution: 62

###

biological target: hUP1-Pi (Homo sapiens, UniProt Q16831); assay: isothermal titration microcalorimetry (ITC), enzyme complexed with substrate Pi
Sequence (Q16831 whole entry): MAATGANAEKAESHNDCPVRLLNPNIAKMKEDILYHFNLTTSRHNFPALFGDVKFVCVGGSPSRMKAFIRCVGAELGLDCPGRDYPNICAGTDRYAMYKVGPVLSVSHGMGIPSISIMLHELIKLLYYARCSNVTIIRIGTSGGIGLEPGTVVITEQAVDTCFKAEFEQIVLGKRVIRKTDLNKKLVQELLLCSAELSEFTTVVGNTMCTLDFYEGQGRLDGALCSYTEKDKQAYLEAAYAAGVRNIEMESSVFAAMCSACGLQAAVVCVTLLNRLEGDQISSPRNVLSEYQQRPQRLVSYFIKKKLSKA
Please use label 1 for Kd under 500 nM and label 0 for everything else, ties included.

Below are worked cases with known answers.
INSERT INTO results (compound, cat) VALUES
  ('Cc1c(CNCCO)c(O)[nH]c(=O)c1C#N', 'label 1'),
  ('Cc1c(CNCC(O)CO)c(O)[nH]c(=O)c1C#N (stereo not drawn)', 'label 1'),
  ('O=c1[nH]c(=O)n(COCCO)cc1Cc1ccccc1 [BAU, benzil acyclo uridine, reference compound]', 'label 0');

Exercise: In the record for `Cc1c(CN(C)C)c(O)[nH]c(=O)c1C#N` , is Kd less than 500 nM?
Solution: label 1

Exercise: In the record for `Cc1cc(O)[nH]c(=O)c1C#N` , is Kd less than 500 nM?
Solution: label 0

###

biological target: hUP1-R1P (Homo sapiens, UniProt Q16831); assay: isothermal titration microcalorimetry (ITC), enzyme complexed with product ribose-1-phosphate; format: binding; conditions: hUP1-R1P 150 μM
ΔG° reference
Report only the number, with the unit kcal/mol understood.

INSERT INTO results (molecule, experimental_target, reported_property, recorded_number) VALUES
  ('N#Cc1ccc(O)[nH]c1=O', 'hUP1-R1P (Homo sapiens, UniProt Q16831)', 'ΔG°', -9.7),
  ('Cc1cc(O)[nH]c(=O)c1C#N [Compound c3]', 'hUP1-R1P (Homo sapiens, UniProt Q16831)', 'ΔG°', -9.8),
  ('Cc1c(CNCCO)c(O)[nH]c(=O)c1C#N', 'hUP1-R1P (Homo sapiens, UniProt Q16831)', 'ΔG°', -7.6),
  ('O=c1[nH]c(=O)n(COCCO)cc1Cc1ccccc1 [BAU, benzil acyclo uridine, reference compound]', 'hUP1-R1P (Homo sapiens, UniProt Q16831)', 'ΔG°', -7.3),
  ('Cc1c(CN(C)C)c(O)[nH]c(=O)c1C#N', 'hUP1-R1P (Homo sapiens, UniProt Q16831)', 'ΔG°', -7.0);

Exercise: Bench note: what ΔG° did `Cc1c(CNC(CO)CO)c(O)[nH]c(=O)c1C#N` show?
Solution: -7.3

Exercise: Bench note: what ΔG° did Cc1c(CNCC(O)CO)c(O)[nH]c(=O)c1C#N (centres unmarked) show?
Solution: -7.1

Exercise: Bench note: what ΔG° did Cc1cc(O)[nH]c(=O)c1C#N [c13] show?
Solution: -8.0

###

inhibition at 1 µM reference
target: Human Phosphorylase Uridine 1 (hUP1) (Homo sapiens, UniProt Q16831); assay: hUP1 enzymatic assay, inhibition at 1 μM (UV absorbance of uridine at 280 nm); format: biochemical; details: 1 μM compound, 37° C.

INSERT INTO results (compound, result) VALUES
  ('N#Cc1ccc(O)[nH]c1=O', '> 60%'),
  ('Cc1cc(O)[nH]c(=O)c1C#N', '> 60%'),
  ('Cc1c(Cc2ccccc2)c(O)[nH]c(=O)c1C#N', '43%'),
  ('Cc1c(CN2CCCCC2)c(O)[nH]c(=O)c1C#N', '49%'),
  ('Cc1c(CNCCO)c(O)[nH]c(=O)c1C#N', '> 60%');

Exercise: Bench note: what inhibition at 1 µM did `O=c1[nH]cc(CNCCO)c(=O)[nH]1` show?
Solution: 2%

Exercise: Bench note: what inhibition at 1 µM did `CCCN(CCC)Cc1c(O)[nH]c(=O)c(C#N)c1C` show?
Solution: 20%

Exercise: Bench note: what inhibition at 1 µM did `CCc1cc(O)[nH]c(=O)c1C#N` show?
Solution: 25%

Exercise: Bench note: what inhibition at 1 µM did `N#Cc1c(-c2ccccc2)cc(O)[nH]c1=O` show?
Solution: 42%

Exercise: Bench note: what inhibition at 1 µM did Cc1c(CNCC(O)CO)c(O)[nH]c(=O)c1C#N (centres unmarked) show?
Solution: > 60%

Exercise: Bench note: what inhibition at 1 µM did `CCN(CC)Cc1c(O)[nH]c(=O)c(C#N)c1C` show?
Solution: 25%

###

−TΔS (kcal/mol/deg) reference
Target: hUP1-R1P (Homo sapiens, UniProt Q16831)
Test: isothermal titration microcalorimetry (ITC), enzyme complexed with product ribose-1-phosphate
Type: binding
Details: hUP1-R1P 150 μM
Method: For determining the thermodynamic parameters (enthalpy variation—ΔH, entropy variation—ΔS, and free energy variation of Gibbs—ΔG) were performed compounds binding essays to the enzyme in different conditions: free enzyme, complexed enzyme with the substrate Pi, and the complexed enzyme with the product ribose-1-phosphate (R1P). […]
Report only the number, with the unit kcal/mol understood.

INSERT INTO assay_data (molecule, reported_property, unit_abbrev, recorded_number) VALUES
  ('Cc1cc(O)[nH]c(=O)c1C#N [c13]', '−TΔS (kcal/mol/deg)', 'kcal/mol', 27),
  ('Cc1c(CN(C)C)c(O)[nH]c(=O)c1C#N', '−TΔS (kcal/mol/deg)', 'kcal/mol', 16);

Exercise: Bench note: what −TΔS (kcal/mol/deg) did Cc1c(CNCC(O)CO)c(O)[nH]c(=O)c1C#N (stereo not shown) show?
Solution: 11

Exercise: Bench note: what −TΔS (kcal/mol/deg) did Cc1cc(O)[nH]c(=O)c1C#N [Compound c3] show?
Solution: 11

###

target: hUP1-Pi (Homo sapiens, UniProt Q16831); test: isothermal titration microcalorimetry (ITC), enzyme complexed with substrate Pi; assay type: binding
reported_property: ΔG° (kcal/mol)
Report only the number, with the unit kcal/mol understood.

Exercise: Bench note: what ΔG° did Cc1c(CNCC(O)CO)c(O)[nH]c(=O)c1C#N (stereo not drawn) [c4] show?
Solution: -9.3

Exercise: Bench note: what ΔG° did O=c1[nH]c(=O)n(COCCO)cc1Cc1ccccc1 [BAU, benzil acyclo uridine, reference compound] show?
Solution: -8.2

Exercise: Bench note: what ΔG° did Cc1cc(O)[nH]c(=O)c1C#N [Compound c3] show?
Solution: -6.9

###

−TΔS (kcal/mol/deg) reference
biological target: hUP1-Pi (Homo sapiens); experiment: isothermal titration microcalorimetry (ITC), enzyme complexed with substrate Pi; format: binding
Report only the number, with the unit kcal/mol/deg understood.

Below are worked cases with known answers.
INSERT INTO results (molecule, experimental_target, recorded_number) VALUES
  ('O=c1[nH]c(=O)n(COCCO)cc1Cc1ccccc1 [BAU, benzil acyclo uridine, reference compound]', 'hUP1-Pi (Homo sapiens)', 4.6),
  ('Cc1c(CN(C)C)c(O)[nH]c(=O)c1C#N', 'hUP1-Pi (Homo sapiens)', 2.6);

Exercise: Bench note: what −TΔS (kcal/mol/deg) did `Cc1c(CNC(CO)CO)c(O)[nH]c(=O)c1C#N` show?
Solution: 5.0

Exercise: Bench note: what −TΔS (kcal/mol/deg) did `Cc1c(CNCCO)c(O)[nH]c(=O)c1C#N` show?
Solution: 6.4

Exercise: Bench note: what −TΔS (kcal/mol/deg) did Cc1c(CNCC(O)CO)c(O)[nH]c(=O)c1C#N (stereo not drawn) show?
Solution: 10

Exercise: Bench note: what −TΔS (kcal/mol/deg) did `Cc1cc(O)[nH]c(=O)c1C#N` show?
Solution: 12
